Where do these numbers come from? They come from the METLIN SMRT retention time set (Domingo-Almenara et al. 2019).

Assay: gradient 5% acetonitrile 3 min, to 50% in 2 min, to 85% in 15 min, held 3 min, 100 µL/min
Settings: column: Zorbax Extend-C18 2.1 x 50 mm; eluents: water / acetonitrile, 0.1% formic acid
We'd kindly ask you to apply these RP-LC retention time classes: lower band: < 700 s; central band: ≥ 700 s and < 900 s; upper band: ≥ 900 s

1. Cc1cccc(S(=O)(=O)N2CCN(c3cc(C)nc(NC4CCCCC4)n3)CC2)c1 | central band
2. Cc1ccc(C(=O)Nc2nc(-c3ccc4c(c3)NC(=O)CO4)c(C)s2)cc1 | upper band
3. Cc1ccc(C)c(CS(=O)(=O)N2CCc3nc(-c4ccc(F)cc4)ncc3C2)c1 | upper band
4. CCN(CC)S(=O)(=O)c1cccc(-c2nc(-c3ccc(C)cc3)no2)c1 | upper band
5. CC(=O)N1CCCC(c2nc(CCNC(=O)C3CCC3)cs2)C1 (centres undefined) | lower band
6. O=c1c2nc(-c3ccc4c(c3)OCO4)cn2ccn1-c1ccc(Cl)cc1 | central band
7. O=C(Nc1ccccc1C(=O)NCCCN1CCCC1)C1=CSCCO1 | lower band
8. Cc1ccc(-c2nnc(-c3cccc(S(=O)(=O)NC(C)C(=O)O)c3)o2)cc1 (centres undefined) | central band
9. Cc1cccc(NC(=O)c2c(O)c3cccnc3n(-c3ccccc3)c2=O)c1C | upper band
10. Cc1ccccc1-c1nnc(COc2ccc(NC(=O)c3n[nH]c4c3CCCC4)cc2)o1 | upper band
11. Cc1ccc(S(=O)(=O)N2CCn3c(nnc3C3CCN(C(C)C)C3)C2)c(C)c1 (centres undefined) | lower band
12. COc1cccc2sc(N(CCCN(C)C)C(=O)c3cccc(C(F)(F)F)c3)nc12 | lower band
13. CC(C)(C)C(=O)N1CCCC(C(=O)Nc2sc3c(c2C(N)=O)CCCC3)C1 (centres undefined) | central band
14. CC1=C(c2ccc(C)c(C)c2)S(=O)(=O)N=C1N1CCC(NC(=O)C2CCCO2)CC1 (centres undefined) | central band
15. Cc1ccccc1CNC(=O)CCC1CCN(c2cc(NC3CC3)ncn2)CC1 | lower band
